molecular target: Kv1.5 (Homo sapiens, UniProt P22460); assay: Kv1.5 inhibition assay (IKur inhibitor assay per cited references); type: cell-based; conditions: at 0.3 μM
Sequence (P22460 whole entry): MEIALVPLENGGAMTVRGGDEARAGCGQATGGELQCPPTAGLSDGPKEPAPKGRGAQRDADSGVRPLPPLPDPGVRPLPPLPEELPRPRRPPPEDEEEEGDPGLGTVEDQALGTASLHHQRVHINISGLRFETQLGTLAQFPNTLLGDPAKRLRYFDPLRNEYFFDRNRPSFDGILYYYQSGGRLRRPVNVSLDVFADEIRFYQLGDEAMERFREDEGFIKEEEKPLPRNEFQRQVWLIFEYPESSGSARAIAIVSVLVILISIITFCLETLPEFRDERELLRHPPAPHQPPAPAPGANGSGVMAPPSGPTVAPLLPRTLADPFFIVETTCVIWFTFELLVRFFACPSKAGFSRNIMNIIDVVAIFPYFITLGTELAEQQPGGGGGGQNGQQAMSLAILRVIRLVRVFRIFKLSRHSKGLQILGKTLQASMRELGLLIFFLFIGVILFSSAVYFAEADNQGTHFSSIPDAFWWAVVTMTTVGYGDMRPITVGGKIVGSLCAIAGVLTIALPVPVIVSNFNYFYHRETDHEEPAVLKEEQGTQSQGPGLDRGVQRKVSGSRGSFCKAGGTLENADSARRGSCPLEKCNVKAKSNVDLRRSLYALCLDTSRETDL
Assign Kv1.5% inhibition to each entry below.
Param answer (str): number followed by unit.

Examples with answers:
molecule="CC1=C(S(=O)(=O)c2ccc(Cl)cc2)C(c2cncnc2)n2nc(C(F)(F)F)cc2N1 (single isomer, unassigned) [Example 50 Isomer 2]" valuetype="Kv1.5% inhibition" assayvalue=14.7%
molecule="CC1=C(S(=O)(=O)c2ccc(C)cc2)C(c2ccc(Cl)cc2)n2nc(C(F)(F)F)cc2N1 (single isomer, unassigned) [Example 28 Isomer 2]" valuetype="Kv1.5% inhibition" assayvalue=83.4%

Looking up CCN(C(=O)C1=C(C)Nc2cc(C)nn2C1c1ccc(Cl)c(Cl)c1)S(=O)(=O)c1c(C)noc1C (single isomer, unassigned) [Example 97 Isomer 2] , I see its Kv1.5% inhibition listed as 50%

---

molecular target: UniProtKB P22460; assay: Kv1.5 inhibition assay (IKur inhibitor assay per cited references); format: cell-based; settings: read-out: Kv1.5 IC50
valueType: IC50 (nM)
Answers are plain numbers, in nM.

compound="CC1=C(S(=O)(=O)c2ccccc2)C(c2ccc(F)cc2)n2nc(C(F)(F)F)cc2N1 (single isomer, unassigned) [Example 36 Isomer 1]" targetentity="UniProtKB P22460" valuetype=IC50 unitsofmeasure=nM assayvalue=208

Provide IC50 for all items below, preserving their order.
1. CC1=C(S(=O)(=O)c2ccc(Cl)cc2)C(C2CCCCC2)n2nc(C(F)(F)F)cc2N1 (single isomer, unassigned) [Example 44 Isomer 1]
2. CC1=C(S(=O)(=O)c2ccc(Cl)cc2)C(c2ccccc2)n2nc(C(F)(F)F)cc2N1 (single isomer, unassigned) [Example 35 Isomer 2]

[A]
[202, 252]

Provide IC50 for all items below, preserving their order.
1. CCCCS(=O)(=O)N(C)C(=O)C1=C(C)Nc2cc(C(F)(F)F)nn2C1c1ccc(Cl)c(Cl)c1 (racemic) [Example 86]
2. CC1=C(S(=O)(=O)c2ccccn2)C(c2ccc(Cl)cc2)n2nc(C(F)(F)F)cc2N1 (single isomer, unassigned) [Example 47 Isomer 1]
3. CC1=C(C(=O)N(C)S(=O)(=O)C(C)C)C(c2ccc(Cl)c(Cl)c2)n2nc(C(F)(F)F)cc2N1 (racemic) [Example 87]
4. CC1=C(S(=O)(=O)c2ccc(Cl)cc2)C(c2ccccc2)n2nc(C(F)(F)F)cc2N1 (single isomer, unassigned) [Example 35 Isomer 1]

[A]
242
197
259
277

---

Assign inhibition at 0.3 µM to each entry below.
target: UniProt:P22460; assay: Kv1.5 inhibition assay (IKur inhibitor assay per cited references); type: cell-based; conditions: at 0.3 μM
Numbers only, in %.

Examples with answers:
compound="CC1=C(S(=O)(=O)c2ccccc2)C(c2ccc(N3CCCC3)cc2)n2nc(C(F)(F)F)cc2N1 (racemic) [Example 21]" assayvalue=11.1
compound="CC1=C(S(=O)(=O)c2ccccc2)C(c2ccc(F)c(C)c2)n2nc(C(F)(F)F)cc2N1 (racemic) [Example 22]" assayvalue=30.7
compound="CC1=C(S(=O)(=O)c2ccc(Cl)cc2)C(c2ccc(C)cc2)n2nc(C(F)(F)F)cc2N1 (racemic) [Example 34]" assayvalue=37.6

Provide inhibition at 0.3 µM for all items below, preserving their order.
1. CC1=C(S(=O)(=O)c2ccccc2)C(c2ccc(Cl)cc2)n2nc(C(F)(F)F)cc2N1 (single isomer, unassigned) [Example 26 Isomer 1]
2. CC1=C(S(=O)(=O)c2ccc(C)cc2)C(c2ccc(Cl)cc2)n2nc(C(F)(F)F)cc2N1 (single isomer, unassigned) [Example 28 Isomer 1]
3. CC1=C(S(=O)(=O)c2ccc(F)cc2)C(c2ccc(Cl)cc2)n2nc(C(F)(F)F)cc2N1 (single isomer, unassigned) [Example 27 Isomer 1]
4. COc1ccc(S(=O)(=O)C2=C(CO)Nc3cc(C(F)(F)F)nn3C2c2ccc(Cl)c(Cl)c2)cc1 (racemic) [Example 48]
5. CC1=C(S(=O)(=O)c2ccccc2)C(c2ccc3c(c2)OCO3)n2nc(C)cc2N1 (racemic) [Example 6]
6. COc1ccc(S(=O)(=O)C2=C(C)Nc3cc(C(F)(F)F)nn3C2c2ccc(Cl)cc2)cc1OC (single isomer, unassigned) [Example 51 Isomer 1]

[A]
[85.8, 77.4, 47.6, 15, 6.1, 69.2]

Provide inhibition at 0.3 µM for all items below, preserving their order.
1. CC1=C(S(=O)(=O)c2ccc(Cl)cc2)C(c2ccc(Cl)cc2)n2nc(C(F)(F)F)cc2N1 (single isomer, unassigned) [Example 31 Isomer 1]
2. COc1cccc(S(=O)(=O)C2=C(C)Nc3cc(C(F)(F)F)nn3C2c2ccc(Cl)cc2)c1 (single isomer, unassigned) [Example 40 Isomer 1]
3. CCCCS(=O)(=O)C1=C(C)Nc2cc(C(F)(F)F)nn2C1c1ccc(Cl)cc1 (single isomer, unassigned) [Example 30 Isomer 2]
4. CC1=C(S(=O)(=O)NC2CCCCC2)C(c2ccc(Cl)cc2)n2nc(C(F)(F)F)cc2N1 (racemic) [Example 52]
5. CCN(C(=O)C1=C(C)Nc2cc(C(F)(F)F)nn2C1c1ccc(Cl)c(Cl)c1)S(=O)(=O)c1ccc(Cl)cc1 (single isomer, unassigned) [Example 93 Isomer 1]

[A]
82.7
94.4
77
49.6
31

Provide inhibition at 0.3 µM for all items below, preserving their order.
1. CC1=C(C(=O)N(C)S(=O)(=O)c2c(C)noc2C)C(c2ccc(Cl)c(Cl)c2)n2nc(C(F)(F)F)cc2N1 (single isomer, unassigned) [Example 95 Isomer 1]
2. CC1=C(S(=O)(=O)NCc2ccccc2)C(c2ccc(Cl)cc2)n2nc(C)cc2N1 (single isomer, unassigned) [Example 55 Isomer 1]
3. Cc1nc2cc(C(F)(F)F)nn2c(-c2ccc(Cl)c(Cl)c2)c1S(=O)(=O)N(C)c1ccccc1 (racemic) [Example 62]

[A]
[91, 22.9, 12]

Provide inhibition at 0.3 µM for all items below, preserving their order.
1. CC1=C(S(=O)(=O)Cc2ccccc2)C(c2ccc(Cl)c(Cl)c2)n2nc(C)cc2N1 (racemic) [Example 14]
2. CC1=C(S(=O)(=O)N2CCCC2)C(c2cc3ccccc3n2C)n2nc(C(F)(F)F)cc2N1 (racemic) [Example 71]
3. CC1=C(C(=O)N(C)S(=O)(=O)c2ccccc2)C(c2ccc(Cl)c(Cl)c2)n2nc(C(F)(F)F)cc2N1 (single isomer, unassigned) [Example 90 Isomer 1]
4. COc1cccc(S(=O)(=O)C2=C(C)Nc3cc(C(F)(F)F)nn3C2c2ccc(C)c(F)c2)c1 (single isomer, unassigned) [Example 41 Isomer 1]

[A]
50.4
41
37
84.4

---

Assign Kv1.5% inhibition to each entry below.
target: UniProt:P22460; test: Kv1.5 inhibition assay (IKur inhibitor assay per cited references); assay type: cell-based; settings: at 0.3 μM
One number for each entry, in %.

compound="CC1=C(S(=O)(=O)NCc2ccccc2)C(c2ccc(Cl)cc2)n2nc(C)cc2N1 (single isomer, unassigned) [Example 55 Isomer 2]" assayvalue=17.2

Provide Kv1.5% inhibition for all items below, preserving their order.
1. COc1ccc(S(=O)(=O)C2=C(CO)Nc3cc(C(F)(F)F)nn3C2c2ccc(Cl)cc2)cc1 (single isomer, unassigned) [Example 49 Isomer 2]
2. CC1=C(S(=O)(=O)c2ccc(Cl)cc2)C(c2ccc(C)c(F)c2)n2nc(C(F)(F)F)cc2N1 (single isomer, unassigned) [Example 42 Isomer 2]
3. COc1ccc(S(=O)(=O)C2=C(C)Nc3cc(C(F)(F)F)nn3C2c2ccc(C)c(F)c2)cc1 (single isomer, unassigned) [Example 32 Isomer 2]
4. COc1cccc(S(=O)(=O)C2=C(C)Nc3cc(C(F)(F)F)nn3C2c2ccc(Cl)c(Cl)c2)c1 (single isomer, unassigned) [Example 39 Isomer 2]
5. CC1=C(S(=O)(=O)c2ccc(Cl)cc2)C(c2ccc(Cl)cc2)n2nc(C(F)(F)F)cc2N1 (single isomer, unassigned) [Example 31 Isomer 2]
6. CCN(CC)S(=O)(=O)C1=C(C)Nc2cc(C)nn2C1c1ccc(Cl)c(Cl)c1 (single isomer, unassigned) [Example 61 Isomer 2]
7. CC1=C(C(=O)N(C)S(=O)(=O)c2ccc(F)cc2)C(c2ccc(Cl)c(Cl)c2)n2nc(C)cc2N1 (single isomer, unassigned) [Example 80 Isomer 2]

[A]
1: 71.2; 2: 92.9; 3: 72.7; 4: 79.6; 5: 81.9; 6: 42.3; 7: 85

Provide Kv1.5% inhibition for all items below, preserving their order.
1. CC1=C(C(=O)N(C)S(=O)(=O)c2ccccc2)C(c2ccc(Cl)c(Cl)c2)n2nc(C)cc2N1 (single isomer, unassigned) [Example 79 Isomer 1]
2. CC1=C(S(=O)(=O)N(C)c2ccccc2)C(c2ccc(Cl)c(Cl)c2)n2nc(C(F)(F)F)cc2N1 (single isomer, unassigned) [Example 63 Isomer 2]
3. COc1cccc(S(=O)(=O)C2=C(C)Nc3cc(C(F)(F)F)nn3C2c2ccc(Cl)cc2)c1 (single isomer, unassigned) [Example 40 Isomer 2]

[A]
[25, 31, 74.4]
